ASSAYED SYSTEM: T1, monkey CD3ε/δ-His (monkey, UniProt Q95LI5 22-117; Q95LI8 22-105)
T1 construct: Bought recombinant heterodimer with His tag
T1 sequence (Q95LI5 22-117, stated change not applied, form in doubt, chain 1 of 2): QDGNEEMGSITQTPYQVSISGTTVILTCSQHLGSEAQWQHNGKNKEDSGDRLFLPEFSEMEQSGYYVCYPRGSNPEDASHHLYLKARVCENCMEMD
T1 sequence (Q95LI8 22-105, stated change not applied, form in doubt, chain 2 of 2): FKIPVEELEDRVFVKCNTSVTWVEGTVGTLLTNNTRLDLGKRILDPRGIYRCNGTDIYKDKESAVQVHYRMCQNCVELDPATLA
ASSAY OVERVIEW: ELISA, coated antigen
max-OD450 values for the binders below.

[
  {
    "BINDER": "5-40.21-H3-L1 humanized antibody (antibody, human IgG1, kappa, V domains shown) VH: EVQLVQSGAEVKKPGASVKVSCKASGYTFTSYWMHWVRQAPGQGLEWMGNTYPGSGSTNYDEKFKSRVTITVDSSASTAYMELSSLRSEDTAVYYCTRDRYGVYYFDYWGQGTTVTVSS VL: DIVMTQSPDSLAVSLGERATINCKSSQSLLNSRTRKNYLAWYQQKPGQSPKLLIYWASTRESGVPDRFSGSGSGTDFTLTISSLQAEDVAVYYCTQSYNLRTFGGGTKVEIKR",
    "READOUT UNIT": "OD450",
    "max-OD450": 3.16
  },
  {
    "BINDER": "8-18.1-H1-L2 humanized antibody (antibody, human IgG1, kappa, V domains shown) VH: EVQLVQSGAEVKKPGASVKVSCKASGYTFTMNTMHWVRQAPGQRLEWMGYINPYSGYTKYNQIFKDRVTITADKSASTAYMELSSLRSEDTAVYYCLRGGEGVWGQGTTVTVSS VL: DVVMTQSPLSLPVTLGQPASISCKSSQSLLDSDGKTYLNWLQQRPGQSPRRLIYLVSELGSGVPDRFSGSGSGTDFTLKISRVEAEDVGVYYCWQGTHFPRTFGGGTKVEIKR",
    "READOUT UNIT": "OD450",
    "max-OD450": 3.16
  },
  {
    "BINDER": "6-44.5-H1-L2 humanized antibody (antibody, human IgG1, kappa, V domains shown) VH: EVQLVQSGAEVKKPGSSVKVSCKASGHTFSSHIMHWVRQAPGQGLEWMGYINPNNDRTEYSEKFKGRVTITADKSTSTAYMELSSLRSEDTAVYYCAGEAYYSNSLYAMDYWGQGTTVTVSS VL: DIVMTQSPDSLAVSLGERATINCKSSQSLFNSRTRKNYLAWYQQKPGQSPKLLIYWASTRESGVPDRFSGSGSGTDFTLTISSLQAEDVAVYYCKQSYYLRTFGGGTKVEIKR",
    "READOUT UNIT": "OD450",
    "max-OD450": 3.07
  },
  {
    "BINDER": "40G5c-hIgG1 (antibody, V domains shown) VH: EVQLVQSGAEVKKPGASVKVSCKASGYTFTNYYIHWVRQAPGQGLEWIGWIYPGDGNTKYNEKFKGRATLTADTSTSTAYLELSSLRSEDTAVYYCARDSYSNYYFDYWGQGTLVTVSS VL: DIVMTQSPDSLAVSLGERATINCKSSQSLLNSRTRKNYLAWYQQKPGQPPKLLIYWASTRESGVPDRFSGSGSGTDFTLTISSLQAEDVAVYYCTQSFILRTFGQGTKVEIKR",
    "READOUT UNIT": "OD450",
    "max-OD450": 2.52
  }
]

Where do these numbers come from? They come from patent US20250136687A1.
